Target: hM4Di (Gi1) (Homo sapiens, UniProt P08173, A203G/Y113C)
Experiment: BRET assay of Gi1 activation in HEK-293 cells with hM4Di
Conditions: BRET change 5 minutes after addition
Param label: returns Condition met when EC50 < 0.2 nM, returns Condition not met otherwise, including exact equality.

> print(dat)
                                   molecule          classname
1  c1ccc2c(c1)N=C(N1CCNCC1)c1ccccc1N2 [Compound 21, reference compound]  Condition not met
2  [2H]C([2H])(C)N1CCN(C2=Nc3cc(Cl)ccc3Nc3ccccc32)CC1 [Compound 13, reference compound]      Condition met
3  CCN1CCN(C2=Nc3cc(Cl)ccc3Nc3cccc(F)c32)CC1 [Compound I(g)]  Condition not met
4  C[N+]1([O-])CCN(C2=Nc3cc(Cl)ccc3Nc3ccccc32)CC1 [CNO, clozapine n-oxide, reference compound]  Condition not met
5  CCN1CCN(C2=Nc3cc(Cl)ccc3Nc3c(F)cccc32)CC1 [Compound I(h)]      Condition met

----------
Molecular target: hM3Dq (Homo sapiens, UniProt P20309, A239G/Y149C)
Sequence (P20309 whole entry Y149C/A239G): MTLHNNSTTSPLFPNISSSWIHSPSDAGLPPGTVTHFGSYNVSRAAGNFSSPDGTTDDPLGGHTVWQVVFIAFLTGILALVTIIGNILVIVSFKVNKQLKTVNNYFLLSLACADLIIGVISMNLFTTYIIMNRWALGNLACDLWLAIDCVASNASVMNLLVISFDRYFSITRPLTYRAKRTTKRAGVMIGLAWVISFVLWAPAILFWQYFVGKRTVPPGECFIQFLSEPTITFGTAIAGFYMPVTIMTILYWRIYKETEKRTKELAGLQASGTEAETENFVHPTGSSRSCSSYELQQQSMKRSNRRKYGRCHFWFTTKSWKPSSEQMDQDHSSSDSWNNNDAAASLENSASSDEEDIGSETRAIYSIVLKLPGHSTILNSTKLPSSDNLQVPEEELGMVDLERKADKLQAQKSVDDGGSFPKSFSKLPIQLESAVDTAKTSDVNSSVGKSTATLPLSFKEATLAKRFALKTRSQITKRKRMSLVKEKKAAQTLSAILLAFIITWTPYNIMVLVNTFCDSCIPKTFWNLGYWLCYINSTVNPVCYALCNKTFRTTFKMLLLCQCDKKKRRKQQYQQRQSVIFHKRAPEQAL
Experiment: Radioligand binding assay, [3H]clozapine competition, hM3Dq membranes
Parameters: host or cells: HEK-293
Conditions: HEK-293 membranes, 2.5 nM [3H]clozapine, Cheng-Prusoff
pKi: −log10 of the molar value.
Entry flag: TRUE if pKi reaches 8; FALSE if it does not.

> print(dat)
                                   molecule  classname
1  CCN1CCN(C2=Nc3cc(Cl)ccc3Nc3cc(F)ccc32)CC1      FALSE
2     CCN1CCN(C2=Nc3cc(F)ccc3Nc3ccccc32)CC1      FALSE
3     CCN1CCN(C2=Nc3ccccc3Nc3ccc(F)cc32)CC1      FALSE
4  CCN1CCN(C2=Nc3cc(Cl)ccc3Nc3c(F)cccc32)CC1       TRUE
5  CCN1CCN(C2=Nc3ccccc3Nc3cccc(F)c32)CC1 [Compound I(e)]       TRUE
6     CCN1CCN(C2=Nc3ccccc3Nc3cc(F)ccc32)CC1      FALSE
7  CCN1CCN(C2=Nc3cc(Cl)ccc3Nc3cccc(F)c32)CC1       TRUE

----------
Biological target: hM4Di (Go1) (Homo sapiens, UniProt P08173, A203G/Y113C)
Experiment: BRET assay of Go1 activation in HEK-293 cells with hM4Di
Settings: BRET change 5 minutes after addition
measurementLabel: EC50

> print(dat)
                                   compound  measurementlabel  reported
1  CCN1CCN(C2=Nc3cc(Cl)ccc3Nc3cccc(F)c32)CC1 [Compound I(g)]              EC50    800 pM
2  [2H]C([2H])(C)N1CCN(C2=Nc3cc(Cl)ccc3Nc3ccccc32)CC1 [Compound 13, reference compound]              EC50     63 pM
3  CCN1CCN(C2=Nc3cc(Cl)ccc3Nc3c(F)cccc32)CC1 [Compound I(h)]              EC50    140 pM
4  c1ccc2c(c1)N=C(N1CCNCC1)c1ccccc1N2 [Compound 21, reference compound]              EC50   1700 pM
5  C[N+]1([O-])CCN(C2=Nc3cc(Cl)ccc3Nc3ccccc32)CC1 [CNO, clozapine n-oxide, reference compound]              EC50   3100 pM

----------
Target: hM4Di (Homo sapiens, UniProt P08173, A203G/Y113C)
Sequence (P08173 1-479 Y113C/A203G): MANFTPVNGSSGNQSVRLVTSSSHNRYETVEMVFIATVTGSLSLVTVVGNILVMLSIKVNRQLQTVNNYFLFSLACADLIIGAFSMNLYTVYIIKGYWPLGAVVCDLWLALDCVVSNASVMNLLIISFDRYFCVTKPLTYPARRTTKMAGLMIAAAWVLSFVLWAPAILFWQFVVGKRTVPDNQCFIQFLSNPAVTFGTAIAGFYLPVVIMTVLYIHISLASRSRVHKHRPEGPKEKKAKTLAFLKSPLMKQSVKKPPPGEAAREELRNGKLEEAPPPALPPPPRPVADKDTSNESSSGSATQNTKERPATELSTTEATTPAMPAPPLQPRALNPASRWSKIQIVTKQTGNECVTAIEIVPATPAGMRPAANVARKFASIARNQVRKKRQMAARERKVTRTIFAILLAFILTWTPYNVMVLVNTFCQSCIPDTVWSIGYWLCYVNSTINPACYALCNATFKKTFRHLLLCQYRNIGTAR
Assay: Radioligand binding assay, [3H]clozapine competition, hM4Di membranes
Conditions: HEK-293 membranes, 2.5 nM [3H]clozapine, Cheng-Prusoff
pKi: −log10 of the molar value.
Hi, to clarify the labels: 1 covers pKi from 8 upward, 0 covers anything below 8.

> print(dat)
                                 smilesdata  classname
1  CCN1CCN(C2=Nc3cc(Cl)ccc3Nc3ccc(F)cc32)CC1          0
2     CCN1CCN(C2=Nc3ccccc3Nc3ccc(F)cc32)CC1          0
3  CCN1CCN(C2=Nc3cc(Cl)ccc3Nc3c(F)cccc32)CC1          1

Value source: patent US11739063B2
